# Assay explanation: Pharmacokinetic evaluation of compounds in mice
# Type: in vivo
# Cond: po, 50 mg/kg; CD-1 mouse (male), single gavage, 50 mpk, plasma
Structures can show the parent of a compound that is named as a salt.

{"Compound": "COc1cc(OC)c(Cl)c(-c2nc(-c3nc(-c4cn(C)nc4C)cnc3N)cn(C)c2=O)c1 [Trifluoroacetate salt of 0027]", "Unit descriptor": "µM·h", "AUC(0-inf)": 95.8}

---

# Assay explanation: Pharmacokinetic evaluation of compounds in mice
# Type: in vivo
# Cond: po, 300 mg/kg; CD-1 mouse (male), single gavage, 300 mpk, plasma; read-out: MRT0-last
Counter-ions that a name gives are not always drawn.

{"Compound": "COc1cc(OC)c(Cl)c(-c2nc(-c3nc(-c4cn(C)nc4C)cnc3N)cn(C)c2=O)c1 [Trifluoroacetate salt of 0027]", "MRT last": "11.1 h"}
